# subject.of.test: T1, CD3 epsilon homodimer protein (UniProt P07766 23-126)
# T1 construct: also called CD3 (CD3 epsilon)
# protocol: SPR, antibody over immobilised CD3e homodimer;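 further: SPR at 25 °C with CD3 epsilon homodimer amine-coupled to a CM4 sensor chip and antibody flowed over as analyte in HBS-EP+ running buffer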
Each entry below carries its recorded KD ratio to GLS3000.
Format: numeric value only, no unit, no commentary.

Some binders with recorded KD ratio to GLS3000:
{"columns": ["binder", "experimental.value"],
 "data": [
  ["CE115HA000/GLS3000 N28S (antibody, IgG1, name in Kabat numbering, V domains shown, one-arm IgG1) VH: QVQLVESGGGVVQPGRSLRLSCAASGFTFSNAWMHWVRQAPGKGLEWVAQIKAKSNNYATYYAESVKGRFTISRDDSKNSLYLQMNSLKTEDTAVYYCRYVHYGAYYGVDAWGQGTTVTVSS VL: DIVMTQSPLSLPVTPGEPASISCRSSQSLVHSSRNTYLHWYQQKPGQAPRLLIYKVSNRFSGVPDRFSGSGSGTDFTLKISRVEAEDVGVYYCGQGTQVPYTFGQGTKLEIK", 4.3],
  ["CE115HA000/GLS3000 N53I (antibody, IgG1, name in Kabat numbering, V domains shown, one-arm IgG1) VH: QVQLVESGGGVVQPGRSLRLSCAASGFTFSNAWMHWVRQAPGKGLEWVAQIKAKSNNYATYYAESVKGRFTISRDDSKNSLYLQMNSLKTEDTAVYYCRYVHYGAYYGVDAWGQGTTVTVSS VL: DIVMTQSPLSLPVTPGEPASISCRSSQSLVHSNRNTYLHWYQQKPGQAPRLLIYKVSIRFSGVPDRFSGSGSGTDFTLKISRVEAEDVGVYYCGQGTQVPYTFGQGTKLEIK", 2.69]
]}

Look up KD ratio to GLS3000 for this binder: CE115HA000/GLS3000 T92D (antibody, IgG1, name in Kabat numbering, V domains shown, one-arm IgG1) VH: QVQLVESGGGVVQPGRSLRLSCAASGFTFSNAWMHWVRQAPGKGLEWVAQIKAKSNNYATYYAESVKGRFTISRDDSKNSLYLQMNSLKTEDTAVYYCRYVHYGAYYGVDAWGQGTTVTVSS VL: DIVMTQSPLSLPVTPGEPASISCRSSQSLVHSNRNTYLHWYQQKPGQAPRLLIYKVSNRFSGVPDRFSGSGSGTDFTLKISRVEAEDVGVYYCGQGDQVPYTFGQGTKLEIK 11.2
